System: SNU-C1 viability, CellTiter-Glo ATP luminescence
run description: SNU-C1 cell viability reduction, dose response, CellTiter-Glo luminescence (AID 1117323)
Calls of active or inactive are those of the source. The rule behind the calls is not given here.
Write down one outcome, taken from active, inactive

Record excerpt, results attached:
| compound | category |
| --- | --- |
| CC[C@]1(O)C[C@@H]2CN(CCc3c([nH]c4ccccc34)[C@@](C(=O)OC)(c3cc4c(cc3OC)N(C)[C@H]3[C@@](O)(C(=O)OC)[C@H](OC(C)=O)[C@]5(CC)C=CCN6CC[C@]43[C@@H]65)C2)C1 | inactive |
| O=C1[O][Bi][O]c2ccccc21 | inactive |
| CCCCCCCCCCCCCC[N+](C)(C)C | active |
| O=C(O)C1(C(=O)O)CCC1.[NH2-].[NH2-].[Pt+2] | inactive |
| CC(=O)[O][Hg][c]1ccccc1 | active |

### Prompt Could you check what this test reported for Cc1ccc([N+](=O)[O-])[c]2c1[O][Hg]2 ?
### Response active

### Prompt Could you check what this test reported for OCCN1CCN(CC/C=C2/c3ccccc3Sc3ccc(C(F)(F)F)cc32)CC1 ?
### Response active

Each recorded value in this set is attributed to PubChem BioAssay AID1117323.
